test: Plasma protein binding in C57BL/6 mouse plasma at 5 uM measured for 4 hrs by equilibrium dialysis method based LC/MS/MS analysis; type: ADME, cell-free; details: read-out: PPB (converted)
Please go through the items and note down their fraction unbound at 4 h, 5 µM.

Looking up C[C@@H]1COCCN1c1cc(N2CCOC[C@@H]2C)nc2[nH]c(-c3cscn3)nc12 , I found its fraction unbound at 4 h, 5 µM recorded as 0.068

Looking up C[C@@H]1COCCN1c1cc(N2CCOC[C@@H]2C)nc2[nH]c(-c3ccccn3)nc12 , I found its fraction unbound at 4 h, 5 µM recorded as 0.065

* * *

experiment: Ratio of drug concentration in brain to plasma in C57BL/6 mouse at 10 mg/kg, po measured at 24 hrs; type: ADME, organism-based; details: brain and plasma, read-out: BPR
PROPERTY_LABEL: Kp at 24 h
Returns: the value as a bare number; no unit string appended.

Looking up C[C@@H]1COCCN1c1cc(N2CCOC[C@@H]2C)nc2[nH]c(-c3cscn3)nc12 , I found its Kp at 24 h recorded as 0.62
